subject.of.test: T1, His-tagged CEACAM1 (human, UniProt P13688 35-428)
T1 construct: 45 kDa SPR analyte; also called CEACAM1-HIS; CEACAM1 analyte
T1 sequence: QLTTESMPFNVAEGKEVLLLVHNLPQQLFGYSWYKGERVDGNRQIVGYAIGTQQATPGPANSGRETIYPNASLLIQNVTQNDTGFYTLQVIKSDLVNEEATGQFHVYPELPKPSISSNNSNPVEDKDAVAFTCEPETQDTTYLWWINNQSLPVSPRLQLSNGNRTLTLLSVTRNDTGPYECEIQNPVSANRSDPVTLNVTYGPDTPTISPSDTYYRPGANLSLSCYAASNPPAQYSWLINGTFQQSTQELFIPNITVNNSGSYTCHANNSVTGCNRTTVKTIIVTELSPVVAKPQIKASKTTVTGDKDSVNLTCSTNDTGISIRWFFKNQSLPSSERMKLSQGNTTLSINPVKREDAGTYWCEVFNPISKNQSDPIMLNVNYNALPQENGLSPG
protocol.text: SPR multi-cycle, IgG captured
Exam item: assign Y to entries whose average relative KD to VH0/Vκ0 is below 2 and N to entries at or above 2. Note that a value of exactly 2 receives N.

binder | label.class
VH2/Vκ9 (antibody, IgG4, V domains shown, IgG4 (S241P), kappa) VH: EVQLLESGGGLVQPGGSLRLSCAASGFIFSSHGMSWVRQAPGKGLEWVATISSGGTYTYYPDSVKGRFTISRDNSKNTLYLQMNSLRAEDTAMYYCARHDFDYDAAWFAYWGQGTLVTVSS VL: EIVLTQSPATLSLSPGERATLSCRANSSVSYMYWYQQKPGQAPRPLIYLTSNRATGVPARFSGSGSGTDYTLTISSLEPEDFATYYCQQWSSNPPTFGQGTKLEIK | Y
VH2/Vκ11 (antibody, IgG4, V domains shown, IgG4 (S241P), kappa) VH: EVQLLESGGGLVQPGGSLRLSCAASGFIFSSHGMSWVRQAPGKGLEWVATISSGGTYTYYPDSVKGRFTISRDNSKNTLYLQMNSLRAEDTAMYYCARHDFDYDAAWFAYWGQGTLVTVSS VL: EIVLTQSPATLSLSPGERATLSCRANSSVSYMYWYQQKPGQAPRPWIYLTSNRATGIPARFSGSGSGTDYTLTISSLEPEDFAVYYCQQWSSNPPTFGQGTKLEIK | N
VH1/Vκ8 (antibody, IgG4, V domains shown, IgG4 (S241P), kappa) VH: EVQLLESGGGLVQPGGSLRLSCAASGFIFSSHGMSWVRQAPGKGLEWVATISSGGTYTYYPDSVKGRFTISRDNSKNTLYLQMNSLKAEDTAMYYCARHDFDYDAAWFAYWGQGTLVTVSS VL: EIVLTQSPATLSLSPGERATLSCRANSSVSYMYWYQQKPGQAPRPWIYLTSNRATGVPARFSGSGSGTDYTLTISSLEPEDFAVYYCQQWSSNPPTFGQGTKLEIK | Y
VH1/Vκ12 (antibody, IgG4, V domains shown, IgG4 (S241P), kappa) VH: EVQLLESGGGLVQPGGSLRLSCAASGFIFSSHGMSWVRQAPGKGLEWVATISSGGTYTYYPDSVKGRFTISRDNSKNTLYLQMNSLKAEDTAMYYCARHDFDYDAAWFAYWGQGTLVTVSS VL: EIVLTQSPATLSLSPGERATLSCRANSSVSYMYWYQQKPGQAPRPLIYLTSNRATGIPARFSGSGSGTDYTLTISSLEPEDFATYYCQQWSSNPPTFGQGTKLEIK | N
VH2/Vκ8 (antibody, IgG4, V domains shown, IgG4 (S241P), kappa) VH: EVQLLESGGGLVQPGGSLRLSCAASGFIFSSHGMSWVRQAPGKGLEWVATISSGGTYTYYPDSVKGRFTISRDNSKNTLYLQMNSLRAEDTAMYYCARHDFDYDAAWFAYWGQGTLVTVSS VL: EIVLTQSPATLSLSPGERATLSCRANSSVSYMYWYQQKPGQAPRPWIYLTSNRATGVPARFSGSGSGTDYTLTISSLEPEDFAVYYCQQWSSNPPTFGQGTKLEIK | N
